- Tested system: Glucose transporter (Leishmania mexicana)
- Test description: ST_JUDE_LEISH: Cytotoxicity at 2uM final concentration against transgenic Leishmania Mexicana promastigotes LmGT2 that are glucose transport deficient and complemented with the L. Mexicana glucose transporter 2. Activity is measured by DNA content using SYBR green in vitro
- Type: functional
Attribute measured: inhibition (%)
Please state the figure in %; there is no need to write the unit.

Which inhibition is listed for "COc1cc(NC(=O)/C=C/c2cc(F)cc(F)c2F)cc(OCCN2CCC(O)(c3ccccc3)CC2)c1" ?
2.47

Which inhibition is listed for "Fc1ccc(-c2cncc(-c3ccc(F)cc3)n2)cc1" ?
8.06

Which inhibition is listed for "Clc1ccc(Cc2nc3ccccc3[nH]2)cc1Cl" ?
4.23

Which inhibition is listed for "COc1cc2nc(Nc3ccc(N4CCOCC4)cc3)nc(N)c2cc1OC" ?
-0.6

Which inhibition is listed for "Fc1ccc2[nH]c(-c3ccc(-c4ccc(CNCc5cnn(-c6ccccc6)n5)cc4)cc3)nc2c1" ?
-1.56

Which inhibition is listed for CC(C)C(C)(C#N)NC(=O)CSc1nc2ccc([N+](=O)[O-])cc2s1 (stereo not given) ?
-1.55

Which inhibition is listed for "Oc1ccc(CCNc2nc(NCCCOc3ccccc3-c3ccc(F)cc3)nc(N3CCNCC3)n2)cc1" ?
9.28

Which inhibition is listed for "CCCCCCN1CCC(NCc2ccc(C(F)(F)F)cc2)CC1" ?
5.77

Which inhibition is listed for "C=C(NC(=O)C1CCCCC1)C(=O)OC" ?
0.41

Which inhibition is listed for "CC(C)C[C@H](NC(=O)c1ccc(F)cc1)C(=O)N[C@H](/C=N/NC(=O)c1ccccc1)CCc1ccccc1" ?
3.91

Which inhibition is listed for "CCOC(=O)c1nc(-c2cccnc2)[nH]c1NC(=S)NCc1ccccc1" ?
3.75

Which inhibition is listed for "O=S(=O)(c1cc(Cl)sc1Cl)N(CCC(O)(C(F)(F)F)C(F)(F)F)Cc1cccc(O)c1" ?
2.62

Which inhibition is listed for "CC(=O)Nc1ccc(OCCCCCOc2ccc(NC(C)=O)cc2Cl)c(Cl)c1" ?
1.13

Which inhibition is listed for "COc1ccc(Nc2nc(N)c3cc(OC)c(OC)cc3n2)cc1OC" ?
5.87

Which inhibition is listed for "CNC(=O)c1ccccc1Nc1nc(Nc2ccc(N3CCN(C)CC3)nc2)ncc1C" ?
9.03

Which inhibition is listed for N#Cc1ccc2c(c1)CN(CCC1CCC(NC(=O)c3cc4cnccc4[nH]3)CC1)CC2 (stereo not given) ?
3.7

Which inhibition is listed for "Cc1cc(=NN=Cc2ccccn2)c2cc(F)ccc2[nH]1" ?
0.4

Which inhibition is listed for "c1cc(-c2ccc(CNC3CCOCC3)cc2)cc(-c2nc3ccccc3[nH]2)c1" ?
-2.46

Which inhibition is listed for "COc1cccc2c(Nc3ccccc3C)nc(Nc3ccccc3C)nc12" ?
4.14

Which inhibition is listed for "COc1ccc2nc(C)cc(Nc3ccc(Oc4ccc(Cl)c5ccccc45)c(Cl)c3)c2c1" ?
5.43

Which inhibition is listed for "CN1CCN(CC(=O)Nc2ccc(-c3ccc(-c4nc5ccccc5[nH]4)s3)cc2)CC1" ?
2.3

Which inhibition is listed for "CC(C)C[C@H](Nc1ccnc(NCC2CCCCC2)n1)C(=O)NCCc1ccccc1" ?
0.72

Which inhibition is listed for "CCn1c(-c2nonc2N)nc2c(-c3ccccc3)ncc(OCCCCNCCc3ncc[nH]3)c21" ?
-0.64

Which inhibition is listed for CC(CN(C)C)C(=O)Nc1cccc(-c2ccc(-c3nc4ccccc4[nH]3)s2)c1 (stereo not given) ?
3.78

Which inhibition is listed for "O=C(NC1CCN(Cc2ccccc2)CC1)c1cccc(Nc2nc(-c3ccccc3)cs2)c1" ?
2.09

Which inhibition is listed for "O=C(CCc1c[nH]cn1)Nc1cccc(-c2cccc(-c3nc4ccccc4[nH]3)c2)c1" ?
11.3

Which inhibition is listed for "CC(C)COc1ccc(Cl)cc1Cc1nc(-c2nc3ccc(CN(C)C)cc3[nH]2)co1" ?
4.57

Which inhibition is listed for "CCOc1ccc(-c2noc(-c3c[nH]c4ccccc4c3=O)n2)cc1" ?
2.82

Which inhibition is listed for "FC(F)(F)c1ccc2[nH]ccc(=NN=Cc3cccc(Cl)c3)c2c1" ?
-3.89

Which inhibition is listed for O=C1NC(c2ccc(N3CCCCCC3)cc2)Nc2ccccc21 (stereo not given) ?
2.21

Which inhibition is listed for "CCCN(CCC)C(=O)c1cc(C(=O)N[C@@H](Cc2ccccc2)[C@H](O)CNC(C)(C)c2cccc(OC)c2)cc(N2CCCCS2(=O)=O)c1" ?
2.14

Which inhibition is listed for "COC(=O)c1ccc(NC(=O)Nc2cccc(CCNCc3ccccc3)c2)cc1" ?
-1.41

Which inhibition is listed for "Cc1ccc(Cn2ncc(N3CCC(N)CC3)c(Cl)c2=O)cc1NC(=O)Nc1ccc(-c2ccccc2)cc1" ?
11.9

Which inhibition is listed for "COc1cccc2c(NCCNc3ccnc4c(OC)cccc34)ccnc12" ?
7.99

Which inhibition is listed for "COc1cc(C(=O)NCc2nn(CCN3CCC(N4CCCC4)CC3)cc2-c2ccc(Cl)c(Cl)c2)cc(OC)c1OC" ?
3.75

Which inhibition is listed for CC(Cc1ccc(CNC(=O)c2ccc(CC(C)NCCc3cccc(Cl)c3)cc2)cc1)NCCc1cccc(Cl)c1 (stereo not given) ?
2.1

Which inhibition is listed for "N=C(N)Nc1nc(-c2cccc(NC(=O)NCc3cccc4ccccc34)c2)cs1" ?
0.66

Which inhibition is listed for "O=C(N[C@@H](CC1CCCCC1)C(=O)NCCc1ccc(Cl)c(Cl)c1)c1ccc(O)c(-c2ccc(Cl)c(Cl)c2)c1" ?
1.25

Which inhibition is listed for "Clc1ccc(-c2nc(-c3ccncc3)c[nH]2)cc1Cl" ?
-0.87

Which inhibition is listed for CCCC(CNCc1cccc(OC(F)(F)C(F)F)c1)CNc1cc(=O)c2ccccc2[nH]1 (stereo not given) ?
-4.05
